Every entry's value here was drawn from patent US7169932B2.

System: HIV-1
Experiment: Cytopathic Effect (CPE) Inhibition Assay (XTT dye reduction)
Type: cell-based
Settings: Human immunodeficiency virus 1, 144 h, read-out: Ave CPE EC50 (mM)
From the text: T-cell lines, CEM-SS, and MT-2, and viruses HIV-1 RF and HIV-1 NL4–3 (pNL4–3) were obtained from the National Institutes of Health (AIDS Research and Reference Reagent Program, Bethesda, Md.). […]
# note: exactly 1000 nM is not below, so it is No; use Yes for EC50 strictly under it

Illustrative cases are given below, each with its answer.
Cc1c(O)cccc1C(=O)N[C@@H](Cc1ccccc1)[C@H](O)C(=O)N1CSC(C)(C)[C@H]1C(=O)N[C@H](C)c1ccccc1 [Example A21] | Yes
Cc1ccccc1CNC(=O)[C@H]1N(C(=O)[C@@H](O)[C@H](Cc2ccccc2)NC(=O)c2ccsc2)CSC1(C)C [Example B6] | Yes
Cc1ccccc1CNC(=O)[C@H]1N(C(=O)[C@@H](O)[C@H](Cc2ccccc2)NC(=O)c2cccc(F)c2C)COC1(C)C [Example C11] | No
Cc1ccccc1CNC(=O)[C@H]1N(C(=O)[C@@H](O)[C@H](Cc2ccccc2)NC(=O)c2ccon2)CSC1(C)C [Example B3] | Yes
Cc1ccccc1CNC(=O)[C@H]1N(C(=O)[C@@H](O)[C@H](Cc2ccccc2)NC(=O)c2cccn2C)CSC1(C)C [Example B12] | No

Challenge: Does Cc1c(O)cccc1C(=O)N[C@@H](Cc1ccccc1)[C@H](O)C(=O)N1CSC(C)(C)[C@H]1C(=O)NCc1ccc(C(F)(F)F)c(F)c1 [Example A11] have EC50 strictly under 1000 nM?
Response given: Yes

Challenge: Does Cc1ccccc1CNC(=O)[C@H]1N(C(=O)[C@@H](O)[C@H](Cc2ccccc2)NC(=O)c2cccc(O)n2)CSC1(C)C [Example B48] have EC50 strictly under 1000 nM?
Response given: No

Challenge: Does Cc1c(O)cccc1C(=O)N[C@@H](Cc1ccccc1)[C@H](O)C(=O)N1CSC(C)(C)[C@H]1C(=O)NCc1cccc(OC(F)(F)F)c1 [Example A25] have EC50 strictly under 1000 nM?
Response given: Yes

----------
target: HIV-1 protease (Q7S) (Human immunodeficiency virus type 1 group M subtype B, UniProt P04585, Q495S); construct: made in house; experiment: HIV-1 Protease RET Assay; format: biochemical; conditions: Ave. Ki (nM), RET assay, Q7S enzyme, pH 4.8, 37 C
Property name: log10 of Ki (log10 of the value in nM)
All values: log10 Ki [nM].

// known answers, use as guide
Cn1cccc1C(=O)N[C@@H](Cc1ccccc1)[C@H](O)C(=O)N1CSC(C)(C)[C@H]1C(=O)NCc1ccccc1Cl | 0.26
Cc1c(O)cccc1C(=O)N[C@@H](Cc1ccccc1)[C@H](O)C(=O)N1CSC(C)(C)[C@H]1C(=O)NC(C)(C)C#N | 0.20
Cc1c(O)cccc1C(=O)N[C@@H](Cc1ccccc1)[C@H](O)C(=O)N1COC(C)(C)[C@H]1C(=O)NCC#N | 1.56
Cc1ccccc1CNC(=O)[C@H]1N(C(=O)[C@@H](O)[C@H](Cc2ccccc2)NC(=O)c2ccncc2Cl)CSC1(C)C | -0.14
Cc1ccccc1CNC(=O)[C@@H]1C[C@H](F)CN1C(=O)[C@@H](O)[C@H](Cc1ccccc1)NC(=O)c1cccc(O)c1C | 0.11

Challenge: Fill in reported log10 of Ki for this entry: Cc1c(O)cccc1C(=O)N[C@@H](Cc1ccccc1)[C@H](O)C(=O)N1CSC(C)(C)[C@H]1C(=O)NC/C=C/C(F)(F)F
Response given: 0.08

----------
test system: HIV-1; test: Cytopathic Effect (CPE) Inhibition Assay (XTT dye reduction); format: cell-based; conditions: Human immunodeficiency virus 1, 144 h, read-out: Ave CPE EC50 (mM)
// reported EC50 per item
Express it in nM; write the number only.

Cc1ccccc1CNC(=O)[C@H]1N(C(=O)[C@@H](O)[C@H](Cc2ccccc2)NC(=O)c2c(C)nn(C)c2Cl)CSC1(C)C [Example B14] | 3050

Challenge: Fill in reported EC50 for this entry: CC/C=C/CNC(=O)[C@H]1N(C(=O)[C@@H](O)[C@H](Cc2ccccc2)NC(=O)c2cccc(O)c2C)CSC1(C)C [Example A36]
Response given: 519

Challenge: Fill in reported EC50 for this entry: Cc1c(O)cccc1C(=O)N[C@@H](Cc1ccccc1)[C@H](O)C(=O)N1CSC(C)(C)[C@H]1C(=O)NCc1cccc(N)c1 [Example A29]
Response given: 117

----------
target: HIV-1 protease (Q7S) (Human immunodeficiency virus type 1 group M subtype B, UniProt P04585, Q495S); construct: made in house; assay: HIV-1 Protease RET Assay; type: biochemical; details: Ki, table of drawn compounds, unit inferred
pKi: −log10 of the molar value.
Please use Met whenever pKi is not below 8, and Not met whenever it is.

Cc1c(O)cccc1C(=O)N[C@@H](Cc1ccccc1)[C@H](O)C(=O)N1CSC(C)(C)[C@H]1C(=O)NCc1cc(F)cc(F)c1 | Met
Cc1c(O)cccc1C(=O)N[C@@H](Cc1ccccc1)[C@H](O)C(=O)N1CSC(C)(C)[C@H]1C(=O)NCC(C)(C)C | Met
Cc1ccccc1CNC(=O)[C@H]1N(C(=O)[C@@H](O)[C@H](Cc2ccccc2)NC(=O)c2csc(N)n2)CSC1(C)C | Met
Cc1cccc(CNC(=O)[C@H]2N(C(=O)[C@@H](O)[C@H](Cc3ccccc3)NC(=O)c3cccc(O)c3C)CSC2(C)C)c1 | Met
Cc1ccccc1CNC(=O)[C@H]1N(C(=O)[C@@H](O)[C@H](Cc2ccccc2)NC(=O)C2=CCCC2)CSC1(C)C | Met

Now look at this entry.
Challenge: Hello, I need to know if COCCNC(=O)[C@H]1N(C(=O)[C@@H](O)[C@H](Cc2ccccc2)NC(=O)c2cccc(O)c2C)CSC1(C)C has measured pKi not below 8. Thanks!
Response given: Met

----------
test system: HIV-1; experiment: Cytopathic Effect (CPE) Inhibition Assay (XTT dye reduction); assay type: cell-based; details: Human immunodeficiency virus 1, 144 h, read-out: Ave CPE EC50 (mM)
Property name: log10(EC50) (log10 of the value in µM)
All values: log10 EC50 [µM].

// known answers, use as guide
Cc1c(O)cccc1C(=O)N[C@@H](Cc1ccccc1)[C@H](O)C(=O)N1CSC(C)(C)[C@H]1C(=O)NC(C)(C)C#N | -0.28
Cc1c(O)cccc1C(=O)N[C@@H](Cc1ccccc1)[C@H](O)C(=O)N1CSC(C)(C)[C@H]1C(=O)NCCc1ccccc1 | -0.35
Cc1c(O)cccc1C(=O)N[C@@H](Cc1ccccc1)[C@H](O)C(=O)N1CSC(C)(C)[C@H]1C(=O)NCc1ccc(F)cc1C(F)(F)F | 0.04
Cc1ccccc1CNC(=O)C1N(C(=O)C(O)C(Cc2ccccc2)NC(=O)C2=NNC(=O)CC2)CSC1(C)C (stereo not drawn) | -0.34
COc1ccc(C(=O)NC(Cc2ccccc2)C(O)C(=O)N2CSC(C)(C)[C@H]2C(=O)NCc2ccccc2C)c(C)c1 (stereo in doubt) | 0.10
Cc1c(O)cccc1C(=O)N[C@@H](Cc1ccccc1)[C@H](O)C(=O)N1CSC(C)(C)[C@H]1C(=O)NCCC(F)(F)F | -0.78
C=CCNC(=O)[C@H]1N(C(=O)[C@@H](O)[C@H](Cc2ccccc2)NC(=O)c2cccc(F)c2C)CSC1(C)C | 0.11
C#CCNC(=O)[C@H]1N(C(=O)[C@@H](O)[C@H](Cc2ccccc2)NC(=O)c2ccc(C)c(O)c2C)CSC1(C)C | -0.22

Kindly review the next compound as well.
Challenge: Fill in reported log10(EC50) for this entry: C/C=C\CNC(=O)[C@H]1N(C(=O)[C@@H](O)[C@H](Cc2ccccc2)NC(=O)c2cccc(O)c2C)CSC1(C)C
Response given: -1.39

----------
molecular target: HIV-1 protease (Q7S) (Human immunodeficiency virus type 1 group M subtype B, UniProt P04585, Q495S); construct: made in house; assay: HIV-1 Protease RET Assay; assay type: biochemical; conditions: Ave. Ki (nM), RET assay, Q7S enzyme, pH 4.8, 37 C
// reported Ki per item

Challenge: Fill in reported Ki for this entry: CCCNC(=O)[C@H]1N(C(=O)[C@@H](O)[C@H](Cc2ccccc2)NC(=O)c2ccccc2C)CSC1(C)C
Response given: 1.1 nM

----------
system: HIV-1; assay: Cytopathic Effect (CPE) Inhibition Assay (XTT dye reduction); type: cell-based; settings: Human immunodeficiency virus 1, 144 h, read-out: Ave CPE EC50 (mM)
// reported log10 EC50 per item
All values: log10 EC50 [nM].

// known answers, use as guide
Cc1c(O)cccc1C(=O)NC(Cc1ccccc1)C(O)C(=O)N1CSC(C)(C)C1C(=O)NCc1cccc(C(F)(F)F)c1 (stereo not drawn) | 2.77
C=CCNC(=O)[C@H]1N(C(=O)[C@@H](O)[C@H](Cc2ccccc2)NC(=O)c2ccc(C)c(O)c2C)CSC1(C)C | 2.63
Cc1ccsc1CNC(=O)[C@H]1N(C(=O)[C@@H](O)[C@H](Cc2ccccc2)NC(=O)c2cccc(O)c2C)CSC1(C)C | 1.56
Cc1ccccc1CNC(=O)[C@@H]1[C@H](C)OCN1C(=O)[C@@H](O)[C@H](Cc1ccccc1)NC(=O)c1cccc(O)c1C | 2.65

Kindly review the next compound as well.
Challenge: Fill in reported log10 EC50 for this entry: CCCOc1cccc(CNC(=O)[C@H]2N(C(=O)[C@@H](O)[C@H](Cc3ccccc3)NC(=O)c3cccc(O)c3C)CSC2(C)C)c1
Response given: 2.75
